target.or.system: factor D (Homo sapiens)
Construct: made in house; host or cells: E. coli
assay.comment: factor D inhibition assay of Biological Example 2
Assay type: biochemical
experimental.endpoint: IC50 (nM)

Worked set:
Cc1ccc(CC(=O)O)c(NC(=O)c2cccc(-c3cc(F)cc(CN)c3)n2)c1 | 22
C[C@@H](N)c1cccc(-c2cc(COc3ccccc3CC(=O)O)cc(OCc3ccncc3)c2)c1F | 3

P = NCc1cc(F)cc(-c2cc(NC3CCOCC3)cc(C(=O)Nc3ccccc3CC(=O)O)c2)c1
Q = N[C@H](CO)c1cc(F)cc(-c2cccc(COc3ccccc3CC(=O)O)c2)c1
[in] // compare measured IC50 between P and Q ; output the lower one # reply format: chosen label
[out] P
(P: 14 nM, Q: 41 nM)

====

target.or.system: factor D (Homo sapiens)
Construct: made in house; host or cells: E. coli
assay.comment: factor D inhibition assay of Biological Example 2
Type: biochemical
experimental.endpoint: IC50 (nM)

C[C@@H](N)c1cccc(-c2cc(COc3ccccc3CC(=O)O)cc(CN3CCCOCC3)c2)c1F | 24
NCc1cccc(-c2cc(C(=O)Nc3ccccc3CC(=O)O)ccn2)c1 | 14300
CCC[C@@H](N)c1cccc(-c2cccc(COc3ccccc3CC(=O)O)c2)c1 | 34

P = NCc1cccc(-c2cccc(C(=O)Nc3ccccc3CC(N)=O)c2)c1
Q = CC(O)c1cc(COc2ccccc2CC(=O)O)cc(-c2cccc([C@H](N)CO)c2)c1 (single isomer, unassigned) [116-E b) (tr = 5.7 min)]
[in] # min-compare on IC50 between P and Q When you have decided, please share the label of that item.
[out] Q

====

target.or.system: factor D (Homo sapiens)
Construct: made in house; host or cells: E. coli
assay.comment: factor D inhibition assay of Biological Example 2
Type: biochemical
pIC50: −log10 of the molar value.
experimental.endpoint: pIC50

N[C@H](CF)c1cccc(-c2cc(COc3ccccc3CC(=O)O)cc(NCC3CC3)c2)c1F | 8.15
Cc1ccc(-c2cccc([C@H](C)N)c2F)cc1COc1ccccc1CC(=O)O | 6.47
C[C@@H](N)c1cccc(-c2cc(COc3ccccc3CC(=O)O)cc(OCC3CCOCC3)c2)c1F | 7.74
NCc1cccc(-c2cc(COc3ccccc3CC(=O)O)cc(OC[C@H]3CCCO3)c2)n1 | 8.30
N[C@H](CO)c1cccc(-c2cc(COc3ccccc3CC(=O)O)cc(OCC(F)(F)F)c2)c1 | 8.30

P = COCCNc1cc(C(=O)Nc2ccccc2CC(=O)O)cc(-c2cccc([C@H](N)CO)c2)c1
Q = CC(NCc1cc(COc2ccccc2CC(=O)O)cc(-c2cccc(CN)c2)c1)C(F)(F)F (centres unmarked)
[in] Looking only at measured pIC50, which entry is lower, P or Q ? Select an item and report its label.
[out] P

====

target.or.system: factor D (Homo sapiens)
Construct: made in house; host or cells: E. coli
assay.comment: factor D inhibition assay of Biological Example 2
Format: biochemical
experimental.endpoint: IC50 (nM)

Examples from the recorded data:
C[C@@H](N)c1cccc(-c2cc(COc3ccccc3CC(=O)O)cc(N(C)C[C@@H]3CCCO3)c2)c1F | 5
NCc1cccc(-c2cccc(S(=O)(=O)Nc3ccccc3CC(=O)O)c2)c1 | 2890
CNc1cc(C(=O)Nc2ccccc2CC(=O)O)nc(-c2cccc(CN)c2)c1 | 6
CC(=O)NC(C(=O)O)c1ccccc1OCc1cccc(-c2cccc(CN)c2)c1 (centres unmarked) | 2410

A = NCc1cccc(-c2cc(COc3ccccc3CC(=O)O)cc(NCC3CC3)c2)c1
B = N=C(N)c1cccc(-c2cccc(C(=O)Nc3ccccc3CC(=O)O)c2)c1
C = COCc1cc(COc2ccccc2CC(=O)O)cc(-c2cccc([C@H](C)N)c2)c1
D = NC(CF)c1cccc(-c2cc(COc3ccccc3CC(=O)O)cc(NCC3CCCC3)c2)c1F (centres unmarked)
E = CCN(CC1CC1)c1cc(COc2ccccc2CC(=O)O)cc(-c2cccc([C@@H](C)N)c2F)c1
[in] Sort low-to-high on IC50, please. Return the labels ranked in the requested order, please.
[out] D, A, E, C, B
(D: 6 nM, A: 22 nM, E: 90 nM, C: 190 nM, B: 396 nM)

====

target.or.system: factor D (Homo sapiens)
Construct: made in house; host or cells: E. coli
assay.comment: factor D inhibition assay of Biological Example 2
Assay type: biochemical
experimental.endpoint: IC50 (µM)

Sample records with IC50:
NC(CF)c1cccc(-c2cc(CCc3ccncc3)cc(COc3ccccc3CC(=O)O)c2)c1F (centres unmarked) [Example 216-Q] | 0.012
N[C@H](CO)c1cccc(-c2ccc(C(F)(F)F)c(COc3ccccc3CC(=O)O)c2)c1 [Example 167] | 0.03

P = CNc1cc(COc2ccccc2CC(=O)O)cc(-c2cccc([C@H](N)CO)c2)c1 [Example 131]
Q = COc1cc(COc2ccccc2CC(=O)O)cc(-c2cccc([C@@H](C)N)c2F)c1 [Example 214-I]
R = Cn1ccc(COc2cc(C(=O)Nc3ccccc3CC(=O)O)cc(-c3cccc(CN)c3)c2)n1 [Example 66]
S = CC(C)CC(=O)Nc1cc(C(=O)Nc2ccccc2CC(=O)O)cc(-c2cc(F)cc(CN)c2)c1 [Example 98]
T = C[C@@H](N)c1cccc(-c2cccc(COc3ccccc3CC(=O)O)c2)c1F [Example 138-L]
[in] Put the entries in order of IC50, starting with the largest number. Form entry: labels listed in requested order.
[out] T, R, P, Q, S
(T: 0.099 µM, R: 0.033 µM, P: 0.018 µM, Q: 0.007 µM, S: 0.004 µM)

1 = N[C@H](CO)c1cccc(-c2cc(COc3ccccc3CC(=O)O)c3c(c2)OCO3)c1 [Example 255]
2 = C[C@@H](N)c1cccc(-c2cc(NC[C@H]3CCCO3)c3c(c2)C(Oc2ccccc2CC(=O)O)CCC3)c1F (some centres unmarked) [Example 216-Y]
3 = CCC[C@@H](N)c1cccc(-c2cc(COc3ccccc3CC(=O)O)cc(NCCOC)c2)c1 [Example 201]
4 = NCc1cccc(-c2nc(C(=O)Nc3ccccc3CC(=O)O)cs2)c1 [Example 27]
[in] Please list these molecules in decreasing order of IC50. Your reply should list the labels following the order given in the request.
[out] 3, 4, 2, 1

====

target.or.system: factor D (Homo sapiens, UniProt P00746)
Construct: made in house; host or cells: E. coli
Sequence (P00746 26-253): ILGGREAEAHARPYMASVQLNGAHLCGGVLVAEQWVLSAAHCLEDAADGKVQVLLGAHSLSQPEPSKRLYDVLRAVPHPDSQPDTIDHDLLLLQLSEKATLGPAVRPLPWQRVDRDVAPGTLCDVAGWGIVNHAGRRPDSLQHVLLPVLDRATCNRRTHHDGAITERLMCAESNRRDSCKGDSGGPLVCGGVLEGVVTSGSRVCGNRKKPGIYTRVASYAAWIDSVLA
assay.comment: factor D inhibition assay of Biological Example 2
Assay type: biochemical
pIC50: −log10 of the molar value.
experimental.endpoint: pIC50

Worked cases, pIC50 given:
COC(C)c1cc(COc2ccccc2CC(=O)O)cc(-c2cccc([C@@H](C)N)c2F)c1 (some centres unmarked) [Example 120-D] | 7.03
COC(=O)Cc1ccccc1NC(=O)c1ccc(OC)c(-c2cccc(CN)c2)c1 [Example 8-A] | 5.30
Cn1ccc(COc2cc(C(=O)Nc3ccccc3CC(=O)O)cc(-c3cc(F)cc(CN)c3)c2)n1 [Example 69] | 7.59
NCc1cc(F)cc(-c2cc(OCc3ncccn3)cc(C(=O)Nc3ccccc3CC(=O)O)c2)c1 [Example 68] | 7.70
CC(C#N)Oc1cc(C(=O)Nc2ccccc2CC(=O)O)cc(-c2cccc(CN)c2)c1 (racemic) [Example 64] | 7.20

A = N[C@H](CO)c1cccc(-c2cc(COc3ccccc3CC(=O)O)cc(C3CC3)c2)c1 [Example 109-B]
B = CCc1ccc(CC(=O)O)c(NC(=O)c2cccc(-c3cc(F)cc(CN)c3)n2)c1 [Example 21-O]
[in] Larger number for pIC50: A , or B ? Give the label under which the chosen entry appears.
[out] B

a = NCc1cc(F)cc(-c2cc(OC[C@H]3CCCO3)cc(C(=O)Nc3ccccc3CC(=O)O)c2)c1 [Example 76]
b = CC(O)c1cc(COc2ccccc2CC(=O)O)cc(-c2cccc([C@H](C)N)c2)c1 (some centres unmarked) [Example 120-L]
[in] Could you tell me which of a and b has the lower pIC50 reading? # respond with the chosen item's label
[out] b

P = NCc1cccc(-c2cc(O)cc(C(=O)Nc3ccccc3CC(=O)O)n2)c1 [Example 55]
Q = CCC(=O)Nc1cc(C(=O)Nc2ccccc2CC(=O)O)cc(-c2cc(F)cc(CN)c2)c1 [Example 96-D]
[in] Hi, I'm comparing P with Q and wondering which one has the bigger number for pIC50. Any idea? Response format: the label of the selected entry.
[out] P
(P: 7.89, Q: 7.68)

====

target.or.system: factor D (Homo sapiens)
Construct: made in house; host or cells: E. coli
assay.comment: factor D inhibition assay of Biological Example 2
Type: biochemical
pIC50: −log10 of the molar value.
experimental.endpoint: pIC50

See these solved cases before continuing.
NCc1cc(F)cc(-c2nc(C(=O)Nc3ccccc3CC(=O)O)c(NC[C@@H]3CCCO3)s2)c1 | 8.15
C[C@@H](N)c1cccc(-c2cc(O)cc(COc3ccccc3CC(=O)O)c2)c1F | 8.15
Cc1c(COc2ccccc2CC(=O)O)cccc1-c1cccc([C@H](N)CO)c1 | 4.99
C[C@@H](N)c1cccc(-c2cc(OC[C@@H]3CCCO3)cc(C(=O)Nc3ccccc3CC(=O)O)c2)c1 | 6.84
COCc1cc(COc2ccccc2CC(=O)O)cc(-c2cccc(C(N)CF)c2F)c1 (racemic) | 8.00

1 = NCc1cccc(-c2cccc(COc3ccccc3CC(=O)O)c2)c1F
2 = CC(C(=O)O)c1ccccc1NC(=O)c1cccc(-c2cc(F)cc(CN)c2)c1 (racemic)
3 = C[C@H](N)c1cccc(-c2cc(COc3ccccc3CC(=O)O)cc(OCCF)c2)c1F
[in] # rank by pIC50, ascending (min first) Would you mind listing the labels in the order asked for?
[out] 2, 3, 1
